Target: Ecm22 (UniProt Q05958)
Sequence: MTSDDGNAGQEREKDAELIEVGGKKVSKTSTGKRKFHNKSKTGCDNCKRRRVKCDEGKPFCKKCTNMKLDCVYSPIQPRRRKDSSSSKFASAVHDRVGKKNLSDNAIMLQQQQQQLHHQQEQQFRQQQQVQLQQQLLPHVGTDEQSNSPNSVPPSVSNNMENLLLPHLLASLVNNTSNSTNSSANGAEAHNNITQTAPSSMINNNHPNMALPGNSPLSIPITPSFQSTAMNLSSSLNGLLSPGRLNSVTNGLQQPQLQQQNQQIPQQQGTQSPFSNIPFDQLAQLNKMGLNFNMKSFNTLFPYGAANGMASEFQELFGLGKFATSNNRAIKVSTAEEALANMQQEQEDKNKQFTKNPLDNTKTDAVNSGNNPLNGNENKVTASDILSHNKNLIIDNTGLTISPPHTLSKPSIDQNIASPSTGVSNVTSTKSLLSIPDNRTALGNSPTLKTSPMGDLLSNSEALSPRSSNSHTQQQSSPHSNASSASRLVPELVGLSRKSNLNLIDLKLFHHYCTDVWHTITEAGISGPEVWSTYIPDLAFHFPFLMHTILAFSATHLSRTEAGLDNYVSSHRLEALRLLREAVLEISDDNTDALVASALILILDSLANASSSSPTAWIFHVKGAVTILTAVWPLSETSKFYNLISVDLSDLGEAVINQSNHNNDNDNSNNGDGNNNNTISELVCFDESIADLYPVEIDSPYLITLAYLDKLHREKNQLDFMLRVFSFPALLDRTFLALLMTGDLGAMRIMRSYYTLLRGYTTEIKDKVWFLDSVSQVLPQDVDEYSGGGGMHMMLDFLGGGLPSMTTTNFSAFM
Assay: PBM E-score (8-mer binding enrichment) (E-score (-0.5 to 0.5)); higher = stronger / more preferred TF binding
Conditions: protein concentration: 200 nM; construct: GST-full length
In all, about 33,000 sequences were measured (“E-score (-0.5 to 0.5)”: median about -0.041, highest 2% from about 0.37 on). Many of the other results were omitted from the sample, so the highest values are more common in it than they were.
We begin with a simple list: items and their reported PBM E-score.
Field format: numeric only.

Param item = "AATTTTGA" ; retrieve measured PBM E-score.
0.0335

Param item = "CTTTTCCA" ; retrieve measured PBM E-score.
-0.271

Param item = "GAGGCTCA" ; retrieve measured PBM E-score.
-0.237

Param item = "CCACTGCC" ; retrieve measured PBM E-score.
-0.0201

Param item = "ACTTCGAG" ; retrieve measured PBM E-score.
-0.105

Param item = "GCTGGGGA" ; retrieve measured PBM E-score.
-0.211

Param item = "ACCTCTAG" ; retrieve measured PBM E-score.
-0.137

Param item = "GAATTGTC" ; retrieve measured PBM E-score.
-0.0741

====

We begin with a simple list: items and their reported PBM E-score.
Molecular target: Ecm22 (UniProt Q05958)
Sequence: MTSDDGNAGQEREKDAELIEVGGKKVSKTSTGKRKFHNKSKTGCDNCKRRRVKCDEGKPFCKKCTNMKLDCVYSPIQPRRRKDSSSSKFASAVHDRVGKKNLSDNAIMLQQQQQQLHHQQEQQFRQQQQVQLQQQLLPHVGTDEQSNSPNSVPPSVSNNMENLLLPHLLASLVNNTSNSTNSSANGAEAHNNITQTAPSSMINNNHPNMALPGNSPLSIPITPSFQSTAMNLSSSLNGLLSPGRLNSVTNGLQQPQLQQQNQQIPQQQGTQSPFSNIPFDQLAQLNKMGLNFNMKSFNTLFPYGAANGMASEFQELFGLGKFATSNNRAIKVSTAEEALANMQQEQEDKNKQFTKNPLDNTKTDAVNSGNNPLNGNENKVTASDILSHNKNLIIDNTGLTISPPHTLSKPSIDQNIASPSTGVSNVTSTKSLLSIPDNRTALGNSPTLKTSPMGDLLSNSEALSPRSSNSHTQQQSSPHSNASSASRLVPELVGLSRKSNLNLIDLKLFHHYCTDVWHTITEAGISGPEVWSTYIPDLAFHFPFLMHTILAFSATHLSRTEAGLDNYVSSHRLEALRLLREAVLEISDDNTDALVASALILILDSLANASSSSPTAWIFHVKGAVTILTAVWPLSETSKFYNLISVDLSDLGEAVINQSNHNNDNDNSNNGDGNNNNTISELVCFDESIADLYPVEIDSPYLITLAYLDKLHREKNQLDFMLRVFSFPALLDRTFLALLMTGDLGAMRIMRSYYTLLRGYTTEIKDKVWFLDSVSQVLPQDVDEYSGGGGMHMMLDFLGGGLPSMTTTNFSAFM
Experiment: PBM E-score (8-mer binding enrichment) (E-score (-0.5 to 0.5)); higher = stronger / more preferred TF binding
Conditions: protein concentration: 200 nM; construct: GST-full length
Whole data set: some 33,000 sequences, median “E-score (-0.5 to 0.5)” near -0.041, cut for the highest 2% near 0.37. The full list was thinned out, with the highest values kept by preference.

monomer_sequence: CTACGGAA
PBM E-score: 0.0649
//
monomer_sequence: CGTTACGA
PBM E-score: 0.403
//
monomer_sequence: GGTTACCA
PBM E-score: 0.0711

Param item = "ATACGGAC" ; retrieve measured PBM E-score.
0.362

Param item = "AGGCTCAG" ; retrieve measured PBM E-score.
-0.211

Param item = "GGACTGGA" ; retrieve measured PBM E-score.
-0.323

The origin of these recorded values is the supplement of paper PMC3334620.
